FYI, the data here is from patent US9662327B2.

- subject-of-test: IDH1 R132H (Homo sapiens (Human), UniProt O75874, R132H)
- Sequence (O75874 whole entry R132H): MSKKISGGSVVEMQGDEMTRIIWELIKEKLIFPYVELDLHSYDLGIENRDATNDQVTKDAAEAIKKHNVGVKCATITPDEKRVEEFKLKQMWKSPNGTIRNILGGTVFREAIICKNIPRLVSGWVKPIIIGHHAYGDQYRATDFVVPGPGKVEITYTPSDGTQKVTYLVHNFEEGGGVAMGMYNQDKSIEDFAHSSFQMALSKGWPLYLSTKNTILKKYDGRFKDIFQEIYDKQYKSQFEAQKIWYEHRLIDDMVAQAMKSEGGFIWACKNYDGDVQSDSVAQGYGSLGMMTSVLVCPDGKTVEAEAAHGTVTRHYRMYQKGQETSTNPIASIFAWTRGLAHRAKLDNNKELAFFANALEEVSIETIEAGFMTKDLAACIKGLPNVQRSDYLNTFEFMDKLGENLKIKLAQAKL
- assay-procedure: Assays for IDH1 R132H Inhibitors (NADPH/aKG, resazurin detection)
- Assay type: biochemical
- protocol-conditions: IDH1 R132H enzyme, Table 3; read-out: R132H IC50
pIC50: −log10 of the molar value.
observable: pIC50

Below: 4 compounds and their reported pIC50.
INSERT INTO assay_data (compound, measured_value) VALUES
  ('COCCC(=O)N1CCN(c2nc(C3CC3)c3c(c2C#N)CCN(C(=O)CCO)C3)C[C@H]1C1CC1 [Compound 501]', '6.00 to 6.30'),
  ('CC(=O)CCC(=O)N1CCN(c2nc(C3CC3)c3c(c2C#N)CC(C)(C)OC3)C[C@H]1C(C)C [Compound 428]', '> 6.30'),
  ('CCOC(=O)CCC(=O)N1CCN(c2nc(C3CC3)c3c(c2C#N)CC(C)(C)OC3)C[C@H]1C(C)C [Compound 456]', '> 6.30'),
  ('CC(C)[C@@H]1CN(c2nc(C3CC3)c3c(c2C#N)CC(C)(C)OC3)CCN1C(=O)Cc1nnco1 [Compound 455]', '6.00 to 6.30');

-- ask Give pIC50 for CNC(=O)CC(=O)N1CCN(c2nc(C3CC3)c3c(c2C#N)CC(C)(C)OC3)C[C@H]1C(C)C [Compound 422]
-- reply 6.00 to 6.30

-- ask Look up pIC50 of CC(O)CC(=O)N1CCN(c2nc(C3CC3)c3c(c2C#N)CC(C)(C)OC3)C[C@H]1C(C)C (stereo partly drawn) [Compound 433] and report it.
-- reply > 6.30

-- ask Answer with reported pIC50 of CC(C)OC(=O)CCC(=O)N1CCN(c2nc(C3CC3)c3c(c2C#N)CC(C)(C)OC3)C[C@H]1C(C)C [Compound 457]
-- reply > 6.30

-- ask State its pIC50 for this compound: C=CS(=O)(=O)N1CCc2c(C#N)c(-c3ccc(C(=O)OC)cc3F)nc(C3CC3)c2C1 [Compound 496]
-- reply > 6.30

-- ask Kindly indicate its recorded pIC50. Item: CC(C)[C@@H]1CN(c2nc(C3CC3)c3c(c2C#N)CC(C)(C)OC3)CCN1C(=O)CS(C)(=O)=O [Compound 446]
-- reply 6.00 to 6.30

-- ask Complete the entry with pIC50 for C=CC(=O)N1CCc2c(C#N)c(N3CCN(C(=O)CC(F)(F)F)[C@H](C4CC4)C3)nc(C3CC3)c2C1 [Compound 490]
-- reply > 6.30

-- ask # return recorded pIC50 for entry C#CC(=O)N1CCc2c(C#N)c(N3CCN(C(=O)C4CC4)[C@H](C4CC4)C3)nc(C3CC3)c2C1 [Compound 491]
-- reply > 6.30

-- ask Output pIC50 of COCCC(=O)N1CCN(c2nc(C3CC3)c3c(c2C#N)CC(C)(C)OC3)CC1C1CC1 (stereo not drawn) [Compound 425]
-- reply > 6.30

-- ask Complete the entry with pIC50 for CC1(C)Cc2c(C#N)c(N3CCN(C(=O)CC(F)(F)F)C(CC(F)(F)F)C3)nc(C3CC3)c2CO1 (stereo not drawn) [Compound 470]
-- reply 6.00 to 6.30

-- ask Fill in reported pIC50 for this entry: CCCCNC(=O)C(=O)CCC(=O)N1CCN(c2nc(C3CC3)c3c(c2C#N)CC(C)(C)OC3)C[C@H]1C(C)C [Compound 467]
-- reply 6.00 to 6.30

-- ask Note pIC50 for the compound shown: CC(C)[C@@H]1CN(c2nc(C3CC3)c3c(c2C#N)CC(C)(C)OC3)CCN1C(=O)c1ccon1 [Compound 427]
-- reply 6.00 to 6.30

-- ask Consider the compound CC1CN(c2nc(C3CC3)c3c(c2C#N)CC(C)(C)OC3)CC(F)CN1C(=O)C1CC1 (stereo not drawn) [Compound 474] . State its measured pIC50.
-- reply 6.00 to 6.30

-- ask Look up and state reported pIC50 for CS(=O)(=O)N1CCc2c(C#N)c(N3CCN(C(=O)C4CC4)[C@H](C4CC4)C3)nc(C3CC3)c2C1 [Compound 481]
-- reply > 6.30

-- ask Given COCCCC(=O)N1CCN(c2nc(C3CC3)c3c(c2C#N)CC(C)(C)OC3)C[C@H]1C(C)C [Compound 424] , respond with its pIC50.
-- reply > 6.30

-- ask Report pIC50, nothing else, for this compound: CCOCCC(=O)N1CCN(c2nc(C3CC3)c3c(c2C#N)CC(C)(C)OC3)C[C@H]1C(C)C [Compound 459]
-- reply > 6.30

-- ask Please give the documented pIC50 of COC(=O)N1CCc2c(C#N)c(N3CCN(C(=O)C4CC4)[C@H](C4CC4)C3)nc(C3CC3)c2C1 [Compound 494]
-- reply 6.00 to 6.30

-- ask Report measured pIC50; entry is C=C(C)C(=O)N1CCc2c(C#N)c(N3CCN(C(=O)CCOC)[C@H](C4CC4)C3)nc(C3CC3)c2C1 [Compound 502]
-- reply 6.00 to 6.30
